Source of measurements: patent US20240343803A1

What EC50 was measured for each of the following?
# assay.system: T1, Fusion protein of extracellular domain of human TIGIT and mouse IgG2a Fc fragment (human TIGIT ECD-mFc) (human)
# T1 construct: The entry includes the signal peptide (limits not recoverable) and the mouse IgG2a Fc
# T1 chain: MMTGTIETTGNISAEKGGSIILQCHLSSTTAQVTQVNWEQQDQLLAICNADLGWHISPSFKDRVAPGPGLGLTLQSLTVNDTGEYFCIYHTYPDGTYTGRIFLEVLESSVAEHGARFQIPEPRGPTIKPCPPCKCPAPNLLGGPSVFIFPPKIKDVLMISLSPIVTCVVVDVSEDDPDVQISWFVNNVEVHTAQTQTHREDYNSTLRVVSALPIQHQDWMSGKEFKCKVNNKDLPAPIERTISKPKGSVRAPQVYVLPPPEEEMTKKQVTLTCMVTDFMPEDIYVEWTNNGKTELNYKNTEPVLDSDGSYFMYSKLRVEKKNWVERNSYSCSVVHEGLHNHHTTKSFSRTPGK
# experimental.protocol: ELISA, human TIGIT ECD-mFc
Answers are plain numbers, in pM.

Reference set, count: 2
TIGIT-002-H2L3 (antibody, V domains shown, Humanized anti-TIGIT antibody) VH: EVQLQESGPGLVKPSETLSLTCAVSGYSITSDSWNWIRQPPGKKLEWIGYISYSGNTYYNPSLKSRVTISRDTSKNQFSLKLSSVTAADTAVYYCARLDFSNYGGAVDYWGQGTTVTVSS VL: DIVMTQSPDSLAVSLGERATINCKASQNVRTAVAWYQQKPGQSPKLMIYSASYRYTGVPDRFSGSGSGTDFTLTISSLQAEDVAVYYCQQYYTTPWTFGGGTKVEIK	15.9
TIGIT-006-H5L2 (antibody, V domains shown, Humanized anti-TIGIT antibody) VH: EVQLQESGPGLVKPSETLSLTCAVSGYSMTSDYWNWIRQPPGKKLEYIGYISYSGRTYYNPSLKSRVTISRDTSKNQFSLKLSSVTAADTAVYYCARGDYSNYGGAMYDWGQGTTVTVSS VL: DIVMTQTPLSLSVTPGQPASISCRASQGVSTTIAWYQQKPGQSPKLLIYSASYRYTGVPDRFSGSGSGTDFTLKISRVEAEDVGVYYCQQYYSSPFTFGGGTKVEIK	11.1

// for each binder in input: emit EC50
1. TIGIT-070-H1L1 (antibody, V domains shown, Humanized anti-TIGIT antibody) VH: EVQLVQSGAEVKKPGASVKVSCKASGYTFTNYYMHWVRQAPGQRLEWMGRIDPDSGGSKYNEKFKSRVTITVDKSASTAYMELSSLRSEDTAVYYCAREGHYGFYSDYWGQGTTVTVSS VL: DIQMTQSPSSLSASVGDRVTITCRVSENIYSYLAWYQQKPGKSPKLLIYNAKTLAEGVPSRFSGSGSGTDFTLTISSLQPEDFATYYCQHHYGNPLTFGPGTKVDIK
2. TIGIT-006-H2L2 (antibody, V domains shown, Humanized anti-TIGIT antibody) VH: EVQLQESGPGLVKPSETLSLTCAVSGYSMTSDYWNWIRQPPGKGLEWIGYISYSGRTYYNPSLKSRVTISRDTSKNQFSLKLSSVTAADTAVYYCARGDYSNYGGAMYDWGQGTTVTVSS VL: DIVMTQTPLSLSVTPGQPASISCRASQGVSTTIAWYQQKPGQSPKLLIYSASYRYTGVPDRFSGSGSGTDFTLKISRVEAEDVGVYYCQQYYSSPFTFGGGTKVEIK
3. TIGIT-070-H1L2 (antibody, V domains shown, Humanized anti-TIGIT antibody) VH: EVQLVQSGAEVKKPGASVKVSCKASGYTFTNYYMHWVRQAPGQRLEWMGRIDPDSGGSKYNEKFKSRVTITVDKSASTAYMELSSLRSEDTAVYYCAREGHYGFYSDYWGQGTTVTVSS VL: DIQMTQSPSSLSASVGDRVTITCRVSENIYSYLAWYQQKPGKSPKLLVYNAKTLAEGVPSRFSGSGSGTDFTLTISSLQPEDFATYYCQHHYGNPLTFGPGTKVDIK
4. TIGIT-070-H1L3 (antibody, V domains shown, Humanized anti-TIGIT antibody) VH: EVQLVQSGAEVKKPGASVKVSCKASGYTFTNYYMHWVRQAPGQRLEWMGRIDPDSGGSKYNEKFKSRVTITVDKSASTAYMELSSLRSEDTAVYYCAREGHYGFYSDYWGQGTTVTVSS VL: DIVMTQSPDSLAVSLGERATINCRVSENIYSYLAWYQQKPGQSPKLLVYNAKTLAEGVPDRFSGSGSGTDFTLTISSLQAEDVAVYYCQHHYGNPLTFGPGTKVDIK
5. TIGIT-005-H2L1a (antibody, V domains shown, Humanized anti-TIGIT antibody with NG-site mutation in VL) VH: EVQLVQSGAEVKKPGASVKVSCKASGYAFTNYLIEWVRQAPGQRLEWMGVINPGSGGTNYKEKFKGRVTITADKSSSTAYMELSSLRSEDTAVYYCARGEYFFFDYWGQGTTVTVSS VL: DIVMTQSPDSLAVSLGERATINCKASQHVSQGVAWYQHKPGQSPKLLIYSASYRYTGVPDRFSGSGSGTDFTLTISSLQAEDVAVYYCQQHYNTPHTFGGGTKVEIK
6. TIGIT-CHI-005 (antibody, V domains shown, Human-mouse chimeric antibody) VH: QVQLQQSGAELVRPGTSVKVSCKASGYAFTNYLIEWVKQRPGQGLEWIGVINPGSGGTNYKEKFKGKATLTADKSSSTAYMQLSSLTSEDSAVYFCARGEYFFFDYWGQGTTLTVSS VL: DIVMTQSHKFMSTSVGDRVSITCKASQHVSNGVAWYQHKPGQSPKLLIYSASYRYTGVPDRFTGTGSGTDFTFTISSVQAEDLAVYYCQQHYNTPHTFGGGTKLEIK
7. TIGIT-006-H4L2 (antibody, V domains shown, Humanized anti-TIGIT antibody) VH: EVQLQESGPGLVKPSETLSLTCAVSGYSMTSDYWNWIRQPPGKKLEWMGYISYSGRTYYNPSLKSRITISRDTSKNQFSLKLSSVTAADTAVYYCARGDYSNYGGAMYDWGQGTTVTVSS VL: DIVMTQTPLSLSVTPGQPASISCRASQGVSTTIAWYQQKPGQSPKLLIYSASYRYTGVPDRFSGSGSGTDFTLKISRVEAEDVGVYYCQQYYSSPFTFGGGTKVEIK

OUTPUT:
1: 14.9; 2: 11.7; 3: 11.8; 4: 14.8; 5: 28.9; 6: 19; 7: 11.3

INPUT: GET /values?readout=EC50&item= TIGIT-002-H4L1 (antibody, V domains shown, Humanized anti-TIGIT antibody) VH: EVQLQESGPGLVKPSETLSLTCAVSGYSITSDSWNWIRQPPGKKLEYIGYISYSGNTYYNPSLKSRVTISRDTSKNQFSLKLSSVTAADTAVYYCARLDFSNYGGAVDYWGQGTTVTVSS VL: DIVMTQTPLSLSVTPGQPASISCKASQNVRTAVAWYLQKPGQSPQLMIYSASYRYTGVPDRFSGSGSGTDFTLKISRVEAEDVGVYYCQQYYTTPWTFGGGTKVEIK
OUTPUT: 16.4
